Where do the numbers come from? From ChEMBL document CHEMBL4041467.

test system: Streptococcus pyogenes; assay: Antibacterial activity against Mef-mediated macrolide efflux resistant Streptococcus pyogenes by agar microdilution method; format: functional
PROPERTY_NAME: MIC (µg/mL)
Write the value in µg/mL as a bare number.

Ask: Entry under review: C=CCO[C@]1(C)C[C@@H](C)NC(=O)[C@H](C)[C@@H](O)[C@](C)(O)[C@@H](CC)OC(=O)[C@H](C)[C@@H](OC(=O)CCNC(C)Cc2ccccc2)[C@H](C)[C@H]1O[C@@H]1O[C@H](C)C[C@H](N(C)C)[C@H]1O (stereo not given in full) . Reported MIC?
Reply: 2

Ask: Thanks! And "C=CCO[C@]1(C)C[C@@H](C)NC(=O)[C@H](C)[C@@H](O)[C@](C)(O)[C@@H](CC)OC(=O)[C@H](C)[C@@H](OC(=O)CCN(C)CCc2ccccc2)[C@H](C)[C@H]1O[C@@H]1O[C@H](C)C[C@H](N(C)C)[C@H]1O" ?
Reply: 8

Ask: Thanks! And C=CCO[C@]1(C)C[C@@H](C)NC(=O)[C@H](C)[C@@H](O)[C@](C)(O)[C@@H](CC)OC(=O)[C@H](C)[C@@H](OC(=O)CCNC(C)C(=O)Nc2cnc3ccccc3c2)[C@H](C)[C@H]1O[C@@H]1O[C@H](C)C[C@H](N(C)C)[C@H]1O (stereo not given in full) ?
Reply: 1

###

assay: AUC(0 to t) in Han Wistar rat at 10 mg/kg, iv by LC-MS/MS analysis; format: ADME, organism-based; conditions: in vivo
PROPERTY_NAME: AUC(0-t)

MOLECULE	OBS_VALUE
C=CCO[C@]1(C)C[C@@H](C)NC(=O)[C@H](C)[C@@H](O)[C@](C)(O)[C@@H](CC)OC(=O)[C@H](C)[C@@H](OC(=O)CCNCCNc2cc3c(=O)c(C(=O)O)cn(C4CC4)c3cc2Cl)[C@H](C)[C@H]1O[C@@H]1O[C@H](C)C[C@H](N(C)C)[C@H]1O	2450 to 5340 ng·h/mL

Ask: Entry under review: "CC[C@H]1OC(=O)[C@H](C)[C@@H](OC(=O)CCNCCNc2cc3c(=O)c(C(=O)O)cn(C4CC4)c3cc2Cl)[C@H](C)[C@@H](O[C@@H]2O[C@H](C)C[C@H](N(C)C)[C@H]2O)[C@](C)(OC/C=C/c2cnc3ccccc3c2)C[C@@H](C)NC(=O)[C@H](C)[C@@H](O)[C@]1(C)O" . Reported AUC(0-t)?
Reply: 4800 to 10000 ng·h/mL

###

Reported values of MIC for individual entries
system: Staphylococcus aureus; experiment: Antibacterial activity against erythromycin susceptible Staphylococcus aureus by agar microdilution method; type: functional
Write the value in µg/mL as a bare number.

COMPOUND	RESULT_UNITS	OBS_VALUE
C=CCO[C@]1(C)C[C@@H](C)NC(=O)[C@H](C)[C@@H](O)[C@](C)(O)[C@@H](CC)OC(=O)[C@H](C)[C@@H](OC(=O)CCNC(C)Cc2ccc(OC)cc2)[C@H](C)[C@H]1O[C@@H]1O[C@H](C)C[C@H](N(C)C)[C@H]1O (stereo not given in full)	µg/mL	2
C=CCO[C@]1(C)C[C@@H](C)NC(=O)[C@H](C)[C@@H](O)[C@](C)(O)[C@@H](CC)OC(=O)[C@H](C)[C@@H](OC(=O)CCNC(C)C(=O)Nc2ccc([N+](=O)[O-])cc2)[C@H](C)[C@H]1O[C@@H]1O[C@H](C)C[C@H](N(C)C)[C@H]1O (stereo not given in full)	µg/mL	1

Now for the compound whose MIC we want.
Ask: Entry under review: C=CCO[C@]1(C)C[C@@H](C)NC(=O)[C@H](C)[C@@H](O)[C@](C)(O)[C@@H](CC)OC(=O)[C@H](C)[C@@H](OC(=O)CCNC(C)C(=O)Nc2cnc3ccccc3c2)[C@H](C)[C@H]1O[C@@H]1O[C@H](C)C[C@H](N(C)C)[C@H]1O (stereo not given in full) . Reported MIC?
Reply: 0.5

###

assay: AUC(0 to t) in Han Wistar rat at 20 mg/kg, po by LC-MS/MS analysis; type: ADME, organism-based; conditions: in vivo
PROPERTY_NAME: AUC(0-t)

Ask: Entry under review: "CC[C@H]1OC(=O)[C@H](C)[C@@H](OC(=O)CCNCCNc2cc3c(=O)c(C(=O)O)cn(C4CC4)c3cc2Cl)[C@H](C)[C@@H](O[C@@H]2O[C@H](C)C[C@H](N(C)C)[C@H]2O)[C@](C)(OC/C=C/c2cnc3ccccc3c2)C[C@@H](C)NC(=O)[C@H](C)[C@@H](O)[C@]1(C)O" . Reported AUC(0-t)?
Reply: 2040 to 9730 ng·h/mL

###

Reported values of MIC for individual entries
test system: Streptococcus pyogenes; assay: Antibacterial activity against Mef-mediated macrolide efflux resistant Streptococcus pyogenes by agar microdilution method; format: functional
Write the value in µg/mL as a bare number.

MOLECULE	RESULT_UNITS	MIC
C=CCO[C@]1(C)C[C@@H](C)NC(=O)[C@H](C)[C@@H](O)[C@](C)(O)[C@@H](CC)OC(=O)[C@H](C)[C@@H](OC(=O)CCN2CCN(c3cc4c(=O)c(C(=O)O)cn(C5CC5)c4cc3Cl)CC2)[C@H](C)[C@H]1O[C@@H]1O[C@H](C)C[C@H](N(C)C)[C@H]1O	µg/mL	1

Ask: Entry under review: "CC[C@H]1OC(=O)[C@H](C)[C@@H](OC(=O)CCNCCNc2cc3c(=O)c(C(=O)O)cn(C4CC4)c3cc2Cl)[C@H](C)[C@@H](O[C@@H]2O[C@H](C)C[C@H](N(C)C)[C@H]2O)[C@](C)(OC/C=C/c2cnc3ccccc3n2)C[C@@H](C)NC(=O)[C@H](C)[C@@H](O)[C@]1(C)O" . Reported MIC?
Reply: 1

Ask: Thanks! And "C=CCO[C@]1(C)C[C@@H](C)NC(=O)[C@H](C)[C@@H](O)[C@](C)(O)[C@@H](CC)OC(=O)[C@H](C)[C@@H](OC(=O)CCN2CCN(c3ccc(F)cc3)CC2)[C@H](C)[C@H]1O[C@@H]1O[C@H](C)C[C@H](N(C)C)[C@H]1O" ?
Reply: 2

Ask: Thanks! And "C=CCO[C@]1(C)C[C@@H](C)NC(=O)[C@H](C)[C@@H](O)[C@](C)(O)[C@@H](CC)OC(=O)[C@H](C)[C@@H](OC(=O)CCNCCCCc2ccccc2)[C@H](C)[C@H]1O[C@@H]1O[C@H](C)C[C@H](N(C)C)[C@H]1O" ?
Reply: 2

Ask: Thanks! And "C=CCO[C@]1(C)C[C@@H](C)NC(=O)[C@H](C)[C@@H](O)[C@](C)(O)[C@@H](CC)OC(=O)[C@H](C)[C@@H](OC(=O)CCNCCCc2ccccc2)[C@H](C)[C@H]1O[C@@H]1O[C@H](C)C[C@H](N(C)C)[C@H]1O" ?
Reply: 8

###

assay: Oral bioavailability in Han Wistar rat at 30 mg/kg by LC-MS/MS analysis; format: ADME, organism-based; conditions: in vivo
PROPERTY_NAME: bioavailability
Kindly write the number and append the unit.

Ask: Entry under review: "C=CCO[C@]1(C)C[C@@H](C)NC(=O)[C@H](C)[C@@H](O)[C@](C)(O)[C@@H](CC)OC(=O)[C@H](C)[C@@H](OC(=O)CCNCCNc2cc3c(=O)c(C(=O)O)cn(C4CC4)c3cc2Cl)[C@H](C)[C@H]1O[C@@H]1O[C@H](C)C[C@H](N(C)C)[C@H]1O" . Reported bioavailability?
Reply: 4.9%

###

system: Staphylococcus aureus; assay: Antibacterial activity against erythromycin susceptible Staphylococcus aureus by agar microdilution method; assay type: functional
PROPERTY_NAME: MIC (µg/mL)
Write the value in µg/mL as a bare number.

MOLECULE	ASSAYED_TARGET	PROPERTY_NAME	OBS_VALUE
C=CCO[C@]1(C)C[C@@H](C)NC(=O)[C@H](C)[C@@H](O)[C@](C)(O)[C@@H](CC)OC(=O)[C@H](C)[C@@H](OC(=O)CCN2CCN(c3cc4c(cc3F)c(=O)c(C(=O)O)cn4C3CC3)CC2)[C@H](C)[C@H]1O[C@@H]1O[C@H](C)C[C@H](N(C)C)[C@H]1O	Staphylococcus aureus	MIC	0.5

Now for the molecule whose MIC we want.
Ask: Entry under review: "CC[C@H]1OC(=O)[C@H](C)[C@@H](OC(=O)CCNCCNc2cc3c(=O)c(C(=O)O)cn(C4CC4)c3cc2Cl)[C@H](C)[C@@H](O[C@@H]2O[C@H](C)C[C@H](N(C)C)[C@H]2O)[C@](C)(OC/C=C/c2cnc3ccccc3n2)C[C@@H](C)NC(=O)[C@H](C)[C@@H](O)[C@]1(C)O" . Reported MIC?
Reply: 0.5
